Target: RORc ligand binding domain (Homo sapiens)
Construct: host or cells: E. coli
Sequence (P51449 269-508 limits assumed, species assumed): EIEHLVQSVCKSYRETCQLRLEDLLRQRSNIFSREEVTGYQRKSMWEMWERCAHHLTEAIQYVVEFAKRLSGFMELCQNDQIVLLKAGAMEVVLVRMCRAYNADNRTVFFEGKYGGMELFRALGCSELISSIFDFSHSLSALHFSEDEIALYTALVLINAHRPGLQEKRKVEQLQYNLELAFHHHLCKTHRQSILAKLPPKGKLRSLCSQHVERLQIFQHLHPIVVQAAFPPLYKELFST
Assay: In Vitro RORc Ligand Binding Assay (25-[3H]hydroxycholesterol radioligand filtration)
Conditions: In Vitro RORc Ligand Binding Assay; Table 4; read-out: RORc IC50
Assay endpoint: IC50 (nM)
Return type: number; implicit unit nM.

Example entries and their recorded answers appear below.
[
  {
    "Molecule": "C[C@H]1CCC(c2ccccc2)S(=O)(=O)N1Cc1ccc(N2CCC(n3ccnn3)CC2)cc1F (single isomer, unassigned) [Example 218]",
    "IC50 / nM": 11
  },
  {
    "Molecule": "C[C@H]1CCC(c2ccccc2)S(=O)(=O)N1Cc1ccc(NC2CCN(S(C)(=O)=O)CC2)cc1 (some centres unmarked) [Example 216]",
    "IC50 / nM": 9
  },
  {
    "Molecule": "CC(=O)N1CCN(c2ccc(CN3C(C)(C)CCC(c4ccccc4)S3(=O)=O)c(F)c2)CC1 (single isomer, unassigned) [Example 14]",
    "IC50 / nM": 1900
  },
  {
    "Molecule": "C[C@H]1CCC(c2ccccc2)S(=O)(=O)N1Cc1ccc(N2CCN(C=O)CC2)cc1F (some centres unmarked) [Example 115]",
    "IC50 / nM": 73
  }
]

Q: Which measured IC50 value corresponds to C[C@H]1CCC(c2ccccc2)S(=O)(=O)N1Cc1ccc(N2CCn3cncc3C2)cc1F (single isomer, unassigned) [Example 154] ?
Ans: 145

Q: Which measured IC50 value corresponds to C[C@H]1CN(c2ccc(CN3[C@@H](C)CCC(c4ccccc4)S3(=O)=O)c(F)c2)CCN1C(=O)CC#N (some centres unmarked) [Example 263] ?
Ans: 15

Q: Which measured IC50 value corresponds to CC(=O)N1CCN(c2ccc(CN3CCCCC(c4ccccc4)S3(=O)=O)cc2)CC1 (single isomer, unassigned) [Example 306] ?
Ans: 87

Q: Which measured IC50 value corresponds to COCC(=O)N1CCN(c2ccc(CN3[C@@H](C)CCC(c4ccccc4)S3(=O)=O)c(F)c2)CC1 (single isomer, unassigned) [Example 75] ?
Ans: 167

From: patent US9115101B2
